Origin of values: ChEMBL document CHEMBL3400106

- Target entity: Tyrosine-protein kinase BTK (Homo sapiens, UniProt Q06187)
- Sequence (Q06187 whole entry): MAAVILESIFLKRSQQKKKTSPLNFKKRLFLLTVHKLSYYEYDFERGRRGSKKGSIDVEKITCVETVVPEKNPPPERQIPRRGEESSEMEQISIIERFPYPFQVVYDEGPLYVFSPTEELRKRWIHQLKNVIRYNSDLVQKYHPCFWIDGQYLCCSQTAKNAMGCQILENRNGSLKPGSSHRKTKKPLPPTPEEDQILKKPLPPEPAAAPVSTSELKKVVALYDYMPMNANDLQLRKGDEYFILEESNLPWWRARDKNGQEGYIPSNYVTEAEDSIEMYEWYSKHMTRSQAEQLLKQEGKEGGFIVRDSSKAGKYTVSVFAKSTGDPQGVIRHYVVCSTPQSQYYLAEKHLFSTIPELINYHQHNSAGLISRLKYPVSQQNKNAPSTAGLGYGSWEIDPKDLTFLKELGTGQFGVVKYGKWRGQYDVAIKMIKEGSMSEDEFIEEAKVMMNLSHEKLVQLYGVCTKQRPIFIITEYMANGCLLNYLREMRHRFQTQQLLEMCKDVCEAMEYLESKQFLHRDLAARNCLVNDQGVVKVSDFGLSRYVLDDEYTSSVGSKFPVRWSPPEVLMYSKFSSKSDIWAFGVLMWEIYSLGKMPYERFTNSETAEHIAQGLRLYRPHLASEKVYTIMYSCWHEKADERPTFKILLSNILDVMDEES
- Method notes: Inhibition of biotinylated and activated BTK (unknown origin) using FITC-labeled Srctide peptide substrate and ATP
pIC50: −log10 of the molar value.
Property: pIC50

[[record]]
molecule = "Cc1c(NC(=O)c2ccc(C(C)(C)C)cc2)cccc1-c1cn(C)c(=O)c(Nc2ccc(C(=O)NCCNC(=S)Nc3ccc(-c4c5ccc(=O)cc-5oc5cc(O)ccc45)c(C(=O)O)c3)cc2)n1"
numeric_readout = 6.54


A: Cc1c(NC(=O)c2ccc(C(C)(C)C)cc2)cccc1-c1cn(C)c(=O)c(Nc2ccc(C(=O)N3CCN(C(=S)Nc4ccc(-c5c6ccc(=O)cc-6oc6cc(O)ccc56)c(C(=O)O)c4)CC3)cc2)n1
B: Cc1c(NC(=O)c2ccc(C(C)(C)C)cc2)cccc1-c1cn(C)c(=O)c(Nc2ccc(C(=O)N3CCOC(CNC(=S)Nc4ccc(-c5c6ccc(=O)cc-6oc6cc(O)ccc56)c(C(=O)O)c4)C3)cc2)n1 (stereo unspecified)
C: Cc1c(NC(=O)c2ccc(C(C)(C)C)cc2)cccc1-c1cn(C)c(=O)c(Nc2ccc(C(=O)NCCCCNC(=S)Nc3ccc(-c4c5ccc(=O)cc-5oc5cc(O)ccc45)c(C(=O)O)c3)cc2)n1
Exam item: Ascending by pIC50, please. Write the labels, ordered according to the request.
Marked response: B, C, A
